tested-system: Human Cot (Homo sapiens (Human), UniProt P41279)
Sequence (P41279 30-397): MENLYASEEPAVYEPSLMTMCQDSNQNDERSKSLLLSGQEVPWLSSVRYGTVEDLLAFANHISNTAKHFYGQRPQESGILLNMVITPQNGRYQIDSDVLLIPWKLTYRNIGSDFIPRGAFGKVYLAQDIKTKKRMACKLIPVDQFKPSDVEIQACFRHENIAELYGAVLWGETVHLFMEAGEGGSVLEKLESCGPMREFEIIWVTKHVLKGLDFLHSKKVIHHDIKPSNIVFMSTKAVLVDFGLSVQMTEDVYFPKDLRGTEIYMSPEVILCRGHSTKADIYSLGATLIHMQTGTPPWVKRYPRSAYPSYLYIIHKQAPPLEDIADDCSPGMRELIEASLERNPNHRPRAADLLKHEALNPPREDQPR
assay-method-text: High Throughput Cot Biochemical Assay
recorded-conditions: IC50 HTRF, Cot HTRF (TR-FRET KinEASE) biochemical assay, 400 μM ATP
compounds and their reported IC50
test-readout: IC50 (nM)

1) Cc1nc(F)ccc1[C@H](Nc1cc(Cl)c2ncc(C#N)c(NCC(C)(C)C)c2c1)c1cn(CCCO)nn1	5
2) COc1c([C@@H](Nc2cc(C#N)c3ncc(C#N)c(NCC(C)(C)C)c3c2)c2ccc(F)nc2C)nnn1C12CC(C1)C2	2
3) Cc1nc(F)ccc1[C@H](Nc1cc(C#N)c2ncc(C#N)c(NCC(C)(C)C)c2c1)c1cn(C2(C(C)C)CC2)nn1	3
4) Cc1nc(F)ccc1[C@H](Nc1cc(C#N)c2ncc(C#N)c(NCC(C)(C)C)c2c1)c1cn(C(C)(C)C2CC2)nn1	6
5) CC(C)(C)CNc1c(C#N)cnc2c(C#N)cc(N[C@@H](c3ccc4nccn4c3)c3cn(C4(C(F)(F)F)CC4)nn3)cc12	10
6) CC(C)(C)CNc1c(C#N)cnc2c(C#N)cc(N[C@H](c3cn(C45CC(C4)C5)nn3)c3cccc4nc(C(F)F)ccc34)cc12	484
